# assayTarget: T1, Y685A (Drosophila melanogaster, UniProt Q9W1K4 512-819, Y685A)
# T1 sequence: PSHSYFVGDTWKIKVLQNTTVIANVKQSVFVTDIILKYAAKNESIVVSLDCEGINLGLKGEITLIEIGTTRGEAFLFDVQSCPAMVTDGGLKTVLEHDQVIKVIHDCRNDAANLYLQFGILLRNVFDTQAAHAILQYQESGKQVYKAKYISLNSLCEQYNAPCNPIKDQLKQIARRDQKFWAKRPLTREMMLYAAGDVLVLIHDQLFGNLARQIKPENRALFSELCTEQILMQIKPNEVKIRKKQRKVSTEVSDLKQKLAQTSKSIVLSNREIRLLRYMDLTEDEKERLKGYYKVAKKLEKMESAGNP
# procedureDetails: fluorescence anisotropy; FA: 20 mM HEPES-NaOH pH 7.5, 100 mM NaCl, 10% glycerol, 20 C, 10 nM FAM-RNA; competition: 150 nM Egl512-819 + 10 nM FAM-K10 TLS, same buffer
# settings: protein: recombinant; tags: N-terminal GST; label: 5'-6-FAM; hairpin with two bulges
parameterMeasured: pKd
Just so you know, pKd here is -log10 of the concentration in molar units; reply with that number alone.

*Q* What value of measured pKd is listed for CUUGAUUGUAUUUUUAAAUUAAUUCUUAAAAACUACAAAUUAAG (structured_RNA) [K10 TLS (FAM)] ?
*A* 6.66
